conditions: 298.15 K; 45000 kPa; Liquid; Vibrating tube method
± gives the expanded uncertainty stated by the source.
measuredAttribute: mass density

State, in one line, measured mass density of CCCCOC
780.38 ± 0.62 kg/m3

State, in one line, measured mass density of CCCCOCC
783.52 ± 0.61 kg/m3

State, in one line, measured mass density of CCCCCOCCCCC
810.16 ± 0.57 kg/m3

State, in one line, measured mass density of CCOC(C)(C)C
777.75 ± 0.62 kg/m3

State, in one line, measured mass density of COC(C)(C)C
777.6 ± 0.62 kg/m3

State, in one line, measured mass density of CC(C)OC(C)C
762.82 ± 0.65 kg/m3

State, in one line, measured mass density of CC(C)CCOCCC(C)C
803.61 ± 0.58 kg/m3

State, in one line, measured mass density of CCCOCCC
781.98 ± 0.62 kg/m3

* * *

settings: 308.15 K; 10000 kPa; Liquid; Vibrating tube method
For each record, write down the corresponding mass density.
The response must be a number in kg/m3 with no trailing unit.

State, in one line, measured mass density of CCCCOCC
746.35

State, in one line, measured mass density of CC(C)OC(C)C
720.99

State, in one line, measured mass density of CCCCCOCCCCC
779.38

State, in one line, measured mass density of CCCCOC
741.88

State, in one line, measured mass density of CCOC(C)(C)C
737.6

State, in one line, measured mass density of CCCOCCC
744.18

State, in one line, measured mass density of CC(C)CCOCCC(C)C
771.57

State, in one line, measured mass density of COC(C)(C)C
737.18

* * *

For each record, write down the corresponding mass density.
conditions: 288.15 K; 65000 kPa; Liquid; Vibrating tube method
The response must be a number in kg/m3 with no trailing unit.

State, in one line, measured mass density of CCCCCOCCCCC
827.41

State, in one line, measured mass density of CCOC(C)(C)C
798.71

State, in one line, measured mass density of COC(C)(C)C
798.67

State, in one line, measured mass density of CCCCOCC
803.54

State, in one line, measured mass density of CCCOCCC
802.29

State, in one line, measured mass density of CCCCOC
800.98

State, in one line, measured mass density of CC(C)CCOCCC(C)C
821.33

State, in one line, measured mass density of CC(C)OC(C)C
784.42

* * *

settings: 303.15 K; 35000 kPa; Liquid; Vibrating tube method
measuredAttribute: mass density (kg/m3)
The response must be a number in kg/m3 with no trailing unit.

State, in one line, measured mass density of CCOC(C)(C)C [2-ethoxy-2-methylpropane]
765.95

State, in one line, measured mass density of CCCOCCC [dipropyl ether]
770.7

State, in one line, measured mass density of CCCCOC [butyl methyl ether]
768.9

State, in one line, measured mass density of COC(C)(C)C [2-methoxy-2-methylpropane]
765.74

State, in one line, measured mass density of CC(C)OC(C)C [diisopropyl ether]
750.85

State, in one line, measured mass density of CCCCCOCCCCC [dipentyl ether]
800.72

State, in one line, measured mass density of CCCCOCC [butyl ethyl ether]
772.35

State, in one line, measured mass density of CC(C)CCOCCC(C)C [di-(3-methylbutyl) ether]
793.91

* * *

For each record, write down the corresponding mass density.
conditions: 293.15 K; 35000 kPa; Liquid; Vibrating tube method
± gives the expanded uncertainty stated by the source.
Please append the unit to your numeric answer.

State, in one line, measured mass density of COC(C)(C)C
774 ± 0.54 kg/m3

State, in one line, measured mass density of CC(C)CCOCCC(C)C
800.71 ± 0.51 kg/m3

State, in one line, measured mass density of CCCOCCC
778.69 ± 0.54 kg/m3

State, in one line, measured mass density of CCCCCOCCCCC
807.54 ± 0.5 kg/m3

State, in one line, measured mass density of CCCCOC
777.09 ± 0.54 kg/m3

State, in one line, measured mass density of CC(C)OC(C)C
758.91 ± 0.57 kg/m3

State, in one line, measured mass density of CCCCOCC
780.33 ± 0.53 kg/m3

State, in one line, measured mass density of CCOC(C)(C)C
774.13 ± 0.54 kg/m3

* * *

settings: 283.15 K; 100 kPa; Liquid; Vibrating tube method
Numbers after ± are expanded uncertainties.
measuredAttribute: mass density

State, in one line, measured mass density of CC(C)OC(C)C [diisopropyl ether]
733.83 ± 0.3 kg/m3

State, in one line, measured mass density of CCCCOCC [butyl ethyl ether]
759.63 ± 0.3 kg/m3

State, in one line, measured mass density of CC(C)CCOCCC(C)C [di-(3-methylbutyl) ether]
782.76 ± 0.3 kg/m3

State, in one line, measured mass density of CCCCOC [butyl methyl ether]
755.88 ± 0.3 kg/m3

State, in one line, measured mass density of COC(C)(C)C [2-methoxy-2-methylpropane]
750.94 ± 0.3 kg/m3

State, in one line, measured mass density of CCOC(C)(C)C [2-ethoxy-2-methylpropane]
751.23 ± 0.3 kg/m3

State, in one line, measured mass density of CCCOCCC [dipropyl ether]
757.39 ± 0.3 kg/m3

State, in one line, measured mass density of CCCCCOCCCCC [dipentyl ether]
790.99 ± 0.29 kg/m3

* * *

For each record, write down the corresponding mass density.
settings: 313.15 K; 65000 kPa; Liquid; Vibrating tube method
The response must be a number in kg/m3 with no trailing unit.

State, in one line, measured mass density of CCCCOC
782.73

State, in one line, measured mass density of CCOC(C)(C)C
780.69

State, in one line, measured mass density of CC(C)CCOCCC(C)C
805.88

State, in one line, measured mass density of CCCCOCC
785.85

State, in one line, measured mass density of CCCCCOCCCCC
811.88

State, in one line, measured mass density of CC(C)OC(C)C
766.39

State, in one line, measured mass density of CCCOCCC
784.29

State, in one line, measured mass density of COC(C)(C)C
780.41

* * *

details: 323.15 K; 40000 kPa; Liquid; Vibrating tube method
measuredAttribute: mass density (kg/m3)
The response must be a number in kg/m3 with no trailing unit.

State, in one line, measured mass density of CCOC(C)(C)C
754.13

State, in one line, measured mass density of CC(C)OC(C)C
739.08

State, in one line, measured mass density of CCCCCOCCCCC
790.51

State, in one line, measured mass density of CCCCOC
756.76

State, in one line, measured mass density of COC(C)(C)C
753.67

State, in one line, measured mass density of CCCOCCC
758.96

State, in one line, measured mass density of CC(C)CCOCCC(C)C
783.97

State, in one line, measured mass density of CCCCOCC
760.68

* * *

settings: 288.15 K; 60000 kPa; Liquid; Vibrating tube method
measuredAttribute: mass density (kg/m3)
The response must be a number in kg/m3 with no trailing unit.

State, in one line, measured mass density of CC(C)OC(C)C
781.16

State, in one line, measured mass density of CCCCCOCCCCC
824.87

State, in one line, measured mass density of CC(C)CCOCCC(C)C
818.64

State, in one line, measured mass density of CCOC(C)(C)C
795.56

State, in one line, measured mass density of COC(C)(C)C
795.55

State, in one line, measured mass density of CCCCOCC
800.57

State, in one line, measured mass density of CCCOCCC
799.26

State, in one line, measured mass density of CCCCOC
797.94

* * *

For each record, write down the corresponding mass density.
conditions: 298.15 K; 35000 kPa; Liquid; Vibrating tube method
The response must be a number in kg/m3 with no trailing unit.

State, in one line, measured mass density of CCCCOCC
776.36

State, in one line, measured mass density of CC(C)CCOCCC(C)C
797.31

State, in one line, measured mass density of CCCOCCC
774.71

State, in one line, measured mass density of CCOC(C)(C)C
770.04

State, in one line, measured mass density of CCCCCOCCCCC
804.13

State, in one line, measured mass density of CCCCOC
772.99

State, in one line, measured mass density of CC(C)OC(C)C
754.77

State, in one line, measured mass density of COC(C)(C)C
769.88

// data source = the NIST ThermoML archive (doi:10.1016/j.fluid.2016.02.009)
